system: human apolipoprotein B mRNA; assay: Inhibition of human apolipoprotein B mRNA levels in HepG2 cells, quantitative real-time PCR; format: cell-based; conditions: Table 11 gene walk; HepG2 cells, 50 nM; averages from two experiments
In the oligonucleotide strings, read from the 5' end, every base follows the letter of its sugar. An asterisk marks phosphorothioate; unmarked linkages are phosphodiester. Other units and linkages are bracketed, terminal groups are in braces. A string of capitals states the bases alone. e = 2'-O-(2-methoxyethyl) (MOE); [5mC] = 5-methylcytosine; d = 2'-deoxy (DNA)
quantityKind: % INHIB 50 nm (%)
Express it in %; write the number only.

substance: 308617 (eG*e[5mC]*eT*e[5mC]*e[5mC]*dT*dT*dT*dT*dA*dG*dG*dT*dT*dA*e[5mC]*e[5mC]*eA*eG*e[5mC]; antisense) [compound 308617]
unitInfo: %
recordedMeasurement: 77

substance: 308619 (eG*eT*eA*eG*eG*d[5mC]*dT*d[5mC]*d[5mC]*dT*dT*dT*dT*dA*dG*eG*eT*eT*eA*e[5mC]; antisense) [compound 308619]
unitInfo: %
recordedMeasurement: 69

Please report the recorded % INHIB 50 nm for 308590 (antisense eA*e[5mC]*e[5mC]*eT*eT*d[5mC]*dT*dG*d[5mC]*dT*dT*dG*dA*dG*dT*eT*eA*e[5mC]*eA*eA) [compound 308590] .
26

Okay, and 308618 (eA*eG*eG*e[5mC]*eT*d[5mC]*d[5mC]*dT*dT*dT*dT*dA*dG*dG*dT*eT*eA*e[5mC]*e[5mC]*eA; antisense) [compound 308618] ?
61

Entry to check: 308593 (antisense e[5mC]*eT*eT*e[5mC]*eG*d[5mC]*dA*d[5mC]*d[5mC]*dT*dT*d[5mC]*dT*dG*d[5mC]*eT*eT*eG*eA*eG) [compound 308593]
41

Input 308607 (eA*eT*eT*eT*eG*dA*dA*dT*dG*dT*d[5mC]*dA*dT*dG*dG*eT*eA*eG*e[5mC]*e[5mC]; antisense) [compound 308607]
9

308608 (eA*eT*eA*eT*eT*dT*dG*dA*dA*dT*dG*dT*d[5mC]*dA*dT*eG*eG*eT*eA*eG; antisense) [compound 308608] , same question.
70

Same again, this time with 308594 (antisense eT*eG*e[5mC]*eT*eT*d[5mC]*dG*d[5mC]*dA*d[5mC]*d[5mC]*dT*dT*d[5mC]*dT*eG*e[5mC]*eT*eT*eG) [compound 308594]
57

And 308621 (eT*eT*eT*eG*eG*dT*dA*dG*dG*d[5mC]*dT*d[5mC]*d[5mC]*dT*dT*eT*eT*eA*eG*eG; antisense) [compound 308621] ?
56

Do the same for 308616 (eT*e[5mC]*e[5mC]*eT*eT*dT*dT*dA*dG*dG*dT*dT*dA*d[5mC]*d[5mC]*eA*eG*e[5mC]*e[5mC]*eA; antisense) [compound 308616] please
39

Request: 308595 (antisense eT*e[5mC]*eT*eG*e[5mC]*dT*dT*d[5mC]*dG*d[5mC]*dA*d[5mC]*d[5mC]*dT*dT*e[5mC]*eT*eG*e[5mC]*eT) [compound 308595]
60

Okay, and 308602 (antisense e[5mC]*eA*eT*eG*eG*dT*dA*dG*d[5mC]*d[5mC]*dT*d[5mC]*dA*dG*dT*e[5mC]*eT*eG*e[5mC]*eT) [compound 308602] ?
83

Also 308606 (eT*eT*eG*eA*eA*dT*dG*dT*d[5mC]*dA*dT*dG*dG*dT*dA*eG*e[5mC]*e[5mC]*eT*e[5mC]; antisense) [compound 308606] , if possible.
54

Param item: 308612 (eG*eG*eT*eT*eA*d[5mC]*d[5mC]*dA*dG*d[5mC]*d[5mC]*dA*d[5mC]*dA*dT*eG*e[5mC]*eA*eG*e[5mC]; antisense) [compound 308612]
75

Please do the same for 308614 (eT*eT*eT*eA*eG*dG*dT*dT*dA*d[5mC]*d[5mC]*dA*dG*d[5mC]*d[5mC]*eA*e[5mC]*eA*eT*eG; antisense) [compound 308614] as well.
74

Now give it for 308604 (eA*eT*eG*eT*e[5mC]*dA*dT*dG*dG*dT*dA*dG*d[5mC]*d[5mC]*dT*e[5mC]*eA*eG*eT*e[5mC]; antisense) [compound 308604] too.
73
